Ref: paper PMC7954794

Tested on: Abp1 PPIs
Experiment: DHFR-PCA of Abp1 SH3-swapped baits (Fig. 2B-D, S2C, S2F)
Assay type: cell-based, Saccharomyces cerevisiae
Details: distance to Abp1 bait with SLA1-2 SH3; sheet Fig2C
Description: Having determined that multiple PPIs require SH3s, we asked whether the latter establish PPI specificity independently from their host proteins by swapping domains (Fig. 2A). […] For instance, Hua2 and App1, both well-characterized partners of Abp1[14],[18],[19], are only detected when Abp1 contains its own SH3 (WT or swapped via editing). […]
ENDPOINT_LABEL: Protein-protein interaction distance between Abp1 SH3-swapped baits, to SLA1-2

>>> observed_value("PEX13 (protein, UniProt P80667 1-386, looked up) Peroxisomal membrane protein …: MSSTAVPRPKPWETSASLEEPQRNAQSLSAMMTSNQQDSRPTEESNNSNSASESAPEVLPRPAALNSSGTYGESNTIPGIYGNSNYGIPYDNNPYSMNSIYGNSIGRYGYGGSYYGNNYGSFYGGGYGAGAGYGMNNGSGLGESTKATFQLIESLIGAVTGFAQMLESTYMATHNSFFTMISVAEQFGNLKEMLGSFFGIFAIMKFLKKILYRATKGRLGIPPKNFAESEGSKNKLIEDFQKFNDSGTINSNEKATRRKISWKPLLFFLMAVFGFPYLLNKFITKLQTSGTIRASQGNGSEPIDPSKLEFARALYDFVPENPEMEVALKKGDLMAILSKKDPLGRDSDWWKVRTKNGNIGYIPYNYIEIIKRRKKIEHVDDETRTH")
21.86
